TARGET_DESC: T1, human IL-18BP (human, UniProt O95998 31-194)
T1 construct: also called hIL-18BP; Mature Human Isoform A
T1 sequence: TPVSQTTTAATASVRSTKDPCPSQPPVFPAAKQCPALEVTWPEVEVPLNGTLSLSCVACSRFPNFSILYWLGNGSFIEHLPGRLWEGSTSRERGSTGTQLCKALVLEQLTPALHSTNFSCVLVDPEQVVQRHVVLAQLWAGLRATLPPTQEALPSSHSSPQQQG
PROTOCOL_DESCRIPTION: BLI, apparent KD, one conc.
Field: Kd. Provide a value for each of the binders that follow.
Give bare numbers, in pM.

Solved cases (3 shown):
• SA301a light chain variant V29L (antibody, V domains shown) VH: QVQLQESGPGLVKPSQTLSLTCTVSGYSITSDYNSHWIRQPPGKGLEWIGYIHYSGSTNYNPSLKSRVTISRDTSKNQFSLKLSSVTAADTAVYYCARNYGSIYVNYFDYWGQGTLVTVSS VL: EIVLTQSPATLSLSPGERATLSCSASSSLSYMYWYQQKPGQAPRPLIYRTSNLASGIPARFSGSGSGTDFTLTISSLEPEDFAVYYCQQYHSYPTFGGGTKVEIK = 330
• SA301a light chain variant S27I (antibody, V domains shown) VH: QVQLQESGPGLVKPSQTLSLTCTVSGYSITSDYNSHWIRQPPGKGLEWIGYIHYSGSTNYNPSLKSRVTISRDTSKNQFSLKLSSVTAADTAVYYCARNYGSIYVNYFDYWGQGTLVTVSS VL: EIVLTQSPATLSLSPGERATLSCSASISVSYMYWYQQKPGQAPRPLIYRTSNLASGIPARFSGSGSGTDFTLTISSLEPEDFAVYYCQQYHSYPTFGGGTKVEIK = 500
• SA301a light chain variant S30L (antibody, V domains shown) VH: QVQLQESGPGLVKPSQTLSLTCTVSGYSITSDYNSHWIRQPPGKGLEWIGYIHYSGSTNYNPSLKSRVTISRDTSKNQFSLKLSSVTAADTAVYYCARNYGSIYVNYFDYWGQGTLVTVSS VL: EIVLTQSPATLSLSPGERATLSCSASSSVLYMYWYQQKPGQAPRPLIYRTSNLASGIPARFSGSGSGTDFTLTISSLEPEDFAVYYCQQYHSYPTFGGGTKVEIK = 490

Now examine the next entry.
## Input What does the record list as Kd for SA301a light chain variant V29Q (antibody, V domains shown) VH: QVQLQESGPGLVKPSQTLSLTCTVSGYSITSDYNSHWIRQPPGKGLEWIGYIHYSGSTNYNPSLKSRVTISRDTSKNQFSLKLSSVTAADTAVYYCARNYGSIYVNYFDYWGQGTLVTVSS VL: EIVLTQSPATLSLSPGERATLSCSASSSQSYMYWYQQKPGQAPRPLIYRTSNLASGIPARFSGSGSGTDFTLTISSLEPEDFAVYYCQQYHSYPTFGGGTKVEIK ?
## Output 300
